target: human PRMT5/MEP50 (Homo sapiens (Human), UniProt O14744); test: PRMT5 chemiluminescent assay; details: human PRMT5/MEP50 expressed in HEK293 cells; biotinylated histone peptide substrate; 60 min reaction; chemiluminescent readout
Sequence (O14744 whole entry): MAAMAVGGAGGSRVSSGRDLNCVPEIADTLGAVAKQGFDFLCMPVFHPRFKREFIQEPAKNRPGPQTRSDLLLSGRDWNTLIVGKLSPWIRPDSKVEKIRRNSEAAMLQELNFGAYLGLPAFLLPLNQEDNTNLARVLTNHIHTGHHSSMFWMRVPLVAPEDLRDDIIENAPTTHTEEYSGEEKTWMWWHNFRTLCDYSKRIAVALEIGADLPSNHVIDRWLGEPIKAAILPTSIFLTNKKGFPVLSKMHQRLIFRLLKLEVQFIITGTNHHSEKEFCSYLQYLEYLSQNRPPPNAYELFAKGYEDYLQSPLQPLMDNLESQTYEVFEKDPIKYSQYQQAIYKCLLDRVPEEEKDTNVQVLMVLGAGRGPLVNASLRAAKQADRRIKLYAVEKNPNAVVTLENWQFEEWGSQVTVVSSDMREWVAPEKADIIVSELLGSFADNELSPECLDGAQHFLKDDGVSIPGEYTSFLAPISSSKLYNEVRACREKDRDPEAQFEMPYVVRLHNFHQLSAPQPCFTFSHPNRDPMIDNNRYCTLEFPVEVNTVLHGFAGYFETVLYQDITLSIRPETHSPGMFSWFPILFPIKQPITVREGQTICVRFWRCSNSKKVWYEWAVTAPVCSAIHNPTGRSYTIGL
Sequence (Q9BQA1 whole entry partner): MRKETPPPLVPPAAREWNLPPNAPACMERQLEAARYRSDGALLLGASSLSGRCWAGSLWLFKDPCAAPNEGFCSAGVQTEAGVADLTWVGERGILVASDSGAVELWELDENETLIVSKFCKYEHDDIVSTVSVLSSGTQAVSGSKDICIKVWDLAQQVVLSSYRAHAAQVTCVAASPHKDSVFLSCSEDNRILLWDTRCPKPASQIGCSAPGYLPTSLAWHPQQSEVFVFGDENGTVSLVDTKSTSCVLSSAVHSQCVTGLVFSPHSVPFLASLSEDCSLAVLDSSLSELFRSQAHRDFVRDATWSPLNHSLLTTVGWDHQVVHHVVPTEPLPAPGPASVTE
measure: IC50

O=C(NCC(O)CN1CCc2c([nH]c3ccccc23)C1)c1cc(NC2CCC2)ncn1 (centres unmarked) = 459 nM
CC(=O)N1CCC(Nc2cc(C(=O)NC[C@@H](O)CN3CCc4c([nH]c5ccccc45)C3)ncn2)CC1 = 158 nM
CC(=O)N1CCC(Nc2cc(C(=O)NCCCN3CCc4c([nH]c5ccccc45)C3)ncn2)CC1 = 99 nM
O=C(NCC(O)CN1CCc2c([nH]c3ccccc23)C1)N1CCC(c2ccccc2)C1 (centres unmarked) = 75700 nM
O=C(NCC(O)CN1CCc2c([nH]c3ccccc23)C1)c1ccc(C(=O)N2C3CCC2COC3)cc1 (centres unmarked) = 1630 nM
O=C(NCC(O)CN1CCc2c([nH]c3ccccc23)C1)N1CCc2ccccc2C1 (centres unmarked) = 21000 nM
O=C(OCC(O)CN1CCc2c([nH]c3ccccc23)C1)N1CCC(c2ccccc2)C1 (centres unmarked) = 10500 nM
CC(=O)N1CCC(Nc2cc(C(=O)NCC(O)CN3CCc4c(n(C)c5ccccc45)C3)ncn2)CC1 (centres unmarked) = 2050 nM

* * *

target: human PRMT5/MEP50 (Homo sapiens (Human), UniProt O14744); experiment: PRMT5 chemiluminescent assay; conditions: human PRMT5/MEP50 expressed in HEK293 cells; biotinylated histone peptide substrate; 60 min reaction; chemiluminescent readout
pIC50: −log10 of the molar value.
Classification field: met = pIC50 at or over 6; not met = pIC50 under 6.

O=C(NCC(O)CN1CCc2c([nH]c3ccccc23)C1)c1ccc(C(=O)N2CCOCC2)cc1 (stereo not drawn) = not met
CN1CCN(c2nc(NC3CCC3)cc(C(=O)NCC(O)CN3CCc4c(n(C)c5ccccc45)C3)n2)CC1 (stereo not drawn) = met
CC(=O)N1CCC(Nc2cc(C(=O)NCC(O)CN3CCn4c(cc5ccccc54)C3)ncn2)CC1 (stereo not drawn) = met
CC(=O)N1CCC(Nc2cc(C(=O)NCC(O)CN3CCc4[nH]c5ccccc5c4C3)ncn2)CC1 (stereo not drawn) = met
O=C(NCC(O)CN1CCc2c([nH]c3ccccc23)C1)N1CCCC(c2ccccc2)C1 (stereo not drawn) = not met
CN1CCN(c2nc(NC3CCC3)cc(C(=O)NCC(O)CN3CCc4c(c5ccccc5n4C)C3)n2)CC1 (stereo not drawn) = met
O=C(OCC(O)CN1CCc2c([nH]c3ccccc23)C1)N1CCc2ccccc2C1 (stereo not drawn) = not met
CC(=O)N1CCC(Nc2cc(C(=O)NCC(O)CN3CCc4c([nH]c5ccccc45)C3)ncn2)CC1 (stereo not drawn) = met

* * *

molecular target: human PRMT5/MEP50 (Homo sapiens (Human), UniProt O14744); assay: PRMT5 chemiluminescent assay; conditions: human PRMT5/MEP50 expressed in HEK293 cells; biotinylated histone peptide substrate; 60 min reaction; chemiluminescent readout
measure: log10 IC50 (log10 of the value in nM)

CN1CCN(c2cc(C(=O)NCC(O)CN3CCc4c([nH]c5ccccc45)C3)cc(NC3CCC3)n2)CC1 (stereo not shown) = 1.83
Cn1c2c(c3ccccc31)CCN(CC(O)CNC(=O)c1cc(NC3CCC3)ncn1)C2 (stereo not shown) = 3.91
CN1CCN(c2cc(C(=O)NCC(O)CN3CCc4c(c5ccccc5n4C)C3)cc(NC3CCC3)n2)CC1 (stereo not shown) = 2.51
Cn1c2c(c3ccccc31)CCN(CC(O)CNC(=O)c1ccc(C(=O)N3C4CCC3COC4)cc1)C2 (stereo not shown) = 4.43
CN1CCN(c2nc(NC3CCC3)cc(C(=O)NCC(O)CN3CCc4c([nH]c5ccccc45)C3)n2)CC1 (stereo not shown) = 2.17
CC(=O)N1CCC(Nc2cc(C(=O)NC[C@H](O)CN3CCc4c([nH]c5ccccc45)C3)ncn2)CC1 = 1.00
CN1CCN(c2cc(C(=O)NCC(O)CN3CCc4c(n(C)c5ccccc45)C3)cc(NC3CCC3)n2)CC1 (stereo not shown) = 2.46
